Target: T1, CD32A^H (UniProt P12318 34-217, limits assumed)
T1 construct: also called FcγRIIA
T1 sequence (looked up): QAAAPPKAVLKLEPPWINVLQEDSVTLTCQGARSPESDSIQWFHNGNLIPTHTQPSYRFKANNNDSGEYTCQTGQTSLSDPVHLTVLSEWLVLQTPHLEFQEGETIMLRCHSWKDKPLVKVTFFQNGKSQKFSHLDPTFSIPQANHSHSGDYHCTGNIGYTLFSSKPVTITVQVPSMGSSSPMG
Assay: SPR (BIAcore), koff compared with wild-type Fc
parameterMeasured: WT koff/mutant koff
Units required after the number.

Answered cases to consult:
Fc mutant 12: F243L R292P Y300L (other, UniProt P01857-1 104-330, looked up, domain: Fc) DKTHTCPPCPAPELLGGPSVFLLPPKPKDTLMISRTPEVTCVVVDVSHEDPEVKFNWYVDGVEVHNAKTKPPEEQYNSTLRVVSVLTVLHQDWLNGKEYKCKVSNKALPAPIEKTISKAKGQPREPQVYTLPPSRDELTKNQVSLTCLVKGFYPSDIAVEWESNGQPENNYKTTPPVLDSDGSFFLYSKLTVDKSRWQQGNVFSCSVMHEALHNHYTQKSLSLSPGK ... 1 ratio
Fc mutant 13: F243L R292P V305I (other, UniProt P01857-1 104-330, looked up, domain: Fc) DKTHTCPPCPAPELLGGPSVFLLPPKPKDTLMISRTPEVTCVVVDVSHEDPEVKFNWYVDGVEVHNAKTKPPEEQYNSTYRVVSILTVLHQDWLNGKEYKCKVSNKALPAPIEKTISKAKGQPREPQVYTLPPSRDELTKNQVSLTCLVKGFYPSDIAVEWESNGQPENNYKTTPPVLDSDGSFFLYSKLTVDKSRWQQGNVFSCSVMHEALHNHYTQKSLSLSPGK ... 0.2 ratio
Fc mutant 14: F243L R292P P396L (other, UniProt P01857-1 104-330, looked up, domain: Fc) DKTHTCPPCPAPELLGGPSVFLLPPKPKDTLMISRTPEVTCVVVDVSHEDPEVKFNWYVDGVEVHNAKTKPPEEQYNSTYRVVSVLTVLHQDWLNGKEYKCKVSNKALPAPIEKTISKAKGQPREPQVYTLPPSRDELTKNQVSLTCLVKGFYPSDIAVEWESNGQPENNYKTTPLVLDSDGSFFLYSKLTVDKSRWQQGNVFSCSVMHEALHNHYTQKSLSLSPGK ... 1.4 ratio

Quick one: WT koff/mutant koff of Fc mutant 15: R292P V305I P396L (other, UniProt P01857-1 104-330, looked up, domain: Fc) DKTHTCPPCPAPELLGGPSVFLFPPKPKDTLMISRTPEVTCVVVDVSHEDPEVKFNWYVDGVEVHNAKTKPPEEQYNSTYRVVSILTVLHQDWLNGKEYKCKVSNKALPAPIEKTISKAKGQPREPQVYTLPPSRDELTKNQVSLTCLVKGFYPSDIAVEWESNGQPENNYKTTPLVLDSDGSFFLYSKLTVDKSRWQQGNVFSCSVMHEALHNHYTQKSLSLSPGK ?
1.5 ratio

What value of WT koff/mutant koff has been reported for the following binder? Fc mutant 16: F243L R292P Y300L P396L (other, UniProt P01857-1 104-330, looked up, domain: Fc) DKTHTCPPCPAPELLGGPSVFLLPPKPKDTLMISRTPEVTCVVVDVSHEDPEVKFNWYVDGVEVHNAKTKPPEEQYNSTLRVVSVLTVLHQDWLNGKEYKCKVSNKALPAPIEKTISKAKGQPREPQVYTLPPSRDELTKNQVSLTCLVKGFYPSDIAVEWESNGQPENNYKTTPLVLDSDGSFFLYSKLTVDKSRWQQGNVFSCSVMHEALHNHYTQKSLSLSPGK
1.7 ratio

Quick one: WT koff/mutant koff for Fc mutant 18: F243L R292P Y300L V305I P396L (other, UniProt P01857-1 104-330, looked up, domain: Fc; Same substitutions as the Fc of ch4D5-FcMT1) DKTHTCPPCPAPELLGGPSVFLLPPKPKDTLMISRTPEVTCVVVDVSHEDPEVKFNWYVDGVEVHNAKTKPPEEQYNSTLRVVSILTVLHQDWLNGKEYKCKVSNKALPAPIEKTISKAKGQPREPQVYTLPPSRDELTKNQVSLTCLVKGFYPSDIAVEWESNGQPENNYKTTPLVLDSDGSFFLYSKLTVDKSRWQQGNVFSCSVMHEALHNHYTQKSLSLSPGK ?
3.2 ratio

# input binder: Fc mutant 17: F243L R292P V305I P396L (other, UniProt P01857-1 104-330, looked up, domain: Fc) DKTHTCPPCPAPELLGGPSVFLLPPKPKDTLMISRTPEVTCVVVDVSHEDPEVKFNWYVDGVEVHNAKTKPPEEQYNSTYRVVSILTVLHQDWLNGKEYKCKVSNKALPAPIEKTISKAKGQPREPQVYTLPPSRDELTKNQVSLTCLVKGFYPSDIAVEWESNGQPENNYKTTPLVLDSDGSFFLYSKLTVDKSRWQQGNVFSCSVMHEALHNHYTQKSLSLSPGK ; wanted: its WT koff/mutant koff
0.8 ratio
